Origin of measurements: ChEMBL document CHEMBL2150896

- experimental-target: Alpha-1A adrenergic receptor (Oryctolagus cuniculus)
- test: Binding affinity to rabbit aorta adrenergic alpha1A receptor assessed as inhibition of phenylephrine-induced constriction after 30 mins
result-type: Kb

• c1ccc(CN2CCN(c3ccccc3)CC2)cc1 = 25 µM
• c1ccc(N2CCN(Cc3ccc4c(c3)OCO4)CC2)cc1 = 25 µM
• c1ccc(N2CCN(CCCCc3ccc4c(c3)OCO4)CC2)cc1 = 9.38 µM
• c1ccc(N2CCN(CCOc3ccc4c(c3)OCO4)CC2)cc1 = 10.3 µM
• c1ccc(CCCN2CCN(c3ccccc3)CC2)cc1 = 9.38 µM
• c1ccc(CCN2CCN(c3ccccc3)CC2)cc1 = 1.46 µM

###

- experimental-target: UniProt:O02824
- Sequence (O02824 whole entry): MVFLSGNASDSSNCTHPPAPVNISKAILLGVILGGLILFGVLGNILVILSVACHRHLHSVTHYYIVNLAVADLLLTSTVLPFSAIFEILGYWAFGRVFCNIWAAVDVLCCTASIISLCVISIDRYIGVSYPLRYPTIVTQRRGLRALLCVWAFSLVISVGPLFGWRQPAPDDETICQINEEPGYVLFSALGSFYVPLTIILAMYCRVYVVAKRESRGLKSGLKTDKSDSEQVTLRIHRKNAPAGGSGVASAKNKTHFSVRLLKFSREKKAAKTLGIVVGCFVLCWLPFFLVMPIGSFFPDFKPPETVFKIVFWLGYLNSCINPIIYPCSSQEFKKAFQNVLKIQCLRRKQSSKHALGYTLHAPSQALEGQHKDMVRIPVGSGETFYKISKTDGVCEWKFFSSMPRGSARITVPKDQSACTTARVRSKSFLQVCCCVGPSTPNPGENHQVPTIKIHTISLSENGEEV
- test: Binding affinity to rabbit aorta adrenergic alpha1A receptor assessed as inhibition of phenylephrine-induced constriction after 30 mins
# Kb per entry
result-type: Kb (nM)

- c1ccc(N2CCN(CCCc3ccc4c(c3)OCO4)CC2)cc1: 3800
- c1ccc(OCCN2CCN(c3ccccc3)CC2)cc1: 7320
- c1ccc(N2CCN(CCCOc3ccc4c(c3)OCO4)CC2)cc1: 27500
- COc1ccc(N2CCN(CCc3ccc4c(c3)OCO4)CC2)cc1: 870
- Fc1ccc(N2CCN(CCc3ccc4c(c3)OCO4)CC2)cc1: 410
- c1ccc(N2CCN(CCc3ccc4c(c3)OCO4)CC2)cc1: 270
- COc1ccccc1N1CCN(CCc2ccc3c(c2)OCO3)CC1: 18
- COc1ccccc1N1CCN(CCCc2ccc3c(c2)OCO3)CC1: 130
- c1ccc(CCCCN2CCN(c3ccccc3)CC2)cc1: 1420
- COc1ccccc1N1CCN(CCN2C(=O)CC3(CCCC3)CC2=O)CC1: 1450
- Clc1ccc(N2CCN(CCc3ccc4c(c3)OCO4)CC2)cc1: 1240

###

- experimental-target: Alpha-1B adrenergic receptor (Rattus norvegicus, UniProt P15823)
- Sequence (P15823 whole entry): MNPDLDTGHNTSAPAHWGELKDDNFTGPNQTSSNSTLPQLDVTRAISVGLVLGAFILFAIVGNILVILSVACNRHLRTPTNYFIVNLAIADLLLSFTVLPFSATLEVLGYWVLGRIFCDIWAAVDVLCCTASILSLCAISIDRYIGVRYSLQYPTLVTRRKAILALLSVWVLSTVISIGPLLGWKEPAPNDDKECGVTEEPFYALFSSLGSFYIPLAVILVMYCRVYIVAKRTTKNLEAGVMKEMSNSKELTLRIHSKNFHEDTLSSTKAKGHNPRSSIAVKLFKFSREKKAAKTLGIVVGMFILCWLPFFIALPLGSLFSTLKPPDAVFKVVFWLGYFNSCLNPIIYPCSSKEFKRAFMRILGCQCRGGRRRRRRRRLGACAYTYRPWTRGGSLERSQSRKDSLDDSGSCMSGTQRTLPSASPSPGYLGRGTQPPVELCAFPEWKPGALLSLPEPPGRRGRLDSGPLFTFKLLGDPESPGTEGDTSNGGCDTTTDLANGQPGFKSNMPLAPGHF
result-type: IC50 (nM)

• COc1ccccc1N1CCN(CCc2ccc3c(c2)OCO3)CC1 = 6.03
